System: UACC-257 melanoma
procedure-text: NCI-60 one-dose screen, 48 h
cond: 10 µM unless noted
This is part of a sample that, as a whole, favours compounds with a hit. Of some 83,000 tested, about 20% had one in any assay. Active and inactive are the calls of the source. Rule for the calls: active = growth percent below 10; inactive = the rest.
Choose the fitting class; nothing outside label 1 for active, label 0 for inactive is accepted.

Below are worked cases with known answers.
[[record]]
compound = "O=[n+]1c2ccccc2n([O-])c2cc(Cl)ccc21"
classification = "label 0"

[[record]]
compound = "N#Cc1c2ccccc2nc2ccccc12"
classification = "label 0"

[[record]]
compound = "Cc1nc(Sc2nc3ccc([N+](=O)[O-])cc3s2)sc1C"
classification = "label 0"

[[record]]
compound = "NC1=C(Br)C(=O)c2ncccc2C1=O"
classification = "label 1"

[[record]]
compound = "CCCCCCCCCCCCNCCCc1ccccc1"
classification = "label 0"


Prompt: Each compound tested received a call. Report the one for CCCCCCCCCCCCCCCCCC1=NCCCN1CCO .
Response: label 0

Prompt: Consider next the compound Oc1ccc2ccccc2c1N=Nc1ccccn1 in the same way.
Response: label 0

Prompt: Consider next the compound COc1ccc(C(Cn2ccnc2)Sc2ccc(Cl)c(Cl)c2)cc1 (centres undefined) in the same way.
Response: label 0

Prompt: Consider next the compound CC(C)(C)CC(C)(C)c1ccc(OCCOCCSC(=N)N)cc1 in the same way.
Response: label 0

Prompt: Consider next the compound c1csc(-c2[nH]nc3c2CCc2ccccc2-3)c1 in the same way.
Response: label 0

Prompt: Consider next the compound Oc1ccc(Br)cc1Sc1cc(Br)ccc1O in the same way.
Response: label 0

Prompt: Consider next the compound CC(C)(C)c1ccc(O)c(Br)c1 in the same way.
Response: label 0

Prompt: Consider next the compound Cc1cc2nc(CC(=O)c3ccncc3)c(=O)[nH]c2cc1C in the same way.
Response: label 0

Prompt: Consider next the compound CCC(C)C(N)C(=O)NC(CC(N)=O)C(=O)NC(CC(C)C)C(=O)NC(CCCCN)C(=O)NC(C)C(=O)NC(CC(C)C)C(=O)NC(C)C(=O)NC(C)C(=O)NC(CC(C)C)C(=O)NC(C)C(=O)NC(CCCCN)C(=O)NC(CCCCN)C(=O)NC(C(=O)NC(CC(C)C)C(N)=O)C(C)CC (centres undefined) in the same way.
Response: label 0
